test-target: Protein arginine N-methyltransferase 3 (Homo sapiens, UniProt O60678)
Sequence (O60678 whole entry): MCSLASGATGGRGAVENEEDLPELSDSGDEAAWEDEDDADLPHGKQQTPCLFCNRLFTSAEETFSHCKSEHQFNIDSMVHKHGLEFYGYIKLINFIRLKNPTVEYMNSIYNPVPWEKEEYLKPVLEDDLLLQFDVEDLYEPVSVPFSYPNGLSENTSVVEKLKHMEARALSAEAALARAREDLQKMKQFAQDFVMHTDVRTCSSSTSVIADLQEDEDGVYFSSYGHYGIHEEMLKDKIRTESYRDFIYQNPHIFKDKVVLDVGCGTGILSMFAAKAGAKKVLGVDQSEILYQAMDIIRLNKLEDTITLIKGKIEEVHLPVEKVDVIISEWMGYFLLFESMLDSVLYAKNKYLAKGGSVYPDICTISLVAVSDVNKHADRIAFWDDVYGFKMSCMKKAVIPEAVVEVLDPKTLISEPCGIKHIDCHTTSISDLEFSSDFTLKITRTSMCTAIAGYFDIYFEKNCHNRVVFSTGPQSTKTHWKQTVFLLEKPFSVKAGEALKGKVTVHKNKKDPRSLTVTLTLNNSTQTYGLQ
Flag rule - IC50 less than 200 nM flags yes (1); the remaining entries get no (0).

INSERT INTO measurements (record_smiles, label_class) VALUES
  ('O=C(NCC(=O)N1C2CCCC1CC2)Nc1ccc2cnccc2c1', 'yes (1)'),
  ('O=C(NCC(=O)N1CC(F)(F)C(F)(F)C1)Nc1ccc2cnccc2c1', 'yes (1)'),
  ('CN1CCN(C(=O)CNC(=O)Nc2ccc3cnccc3c2)CC1', 'no (0)');

*Q* Is IC50 strictly under 200 nM for the entry O=C(CNC(=O)Nc1ccc2cnccc2c1)NC1CC1 ?
*A* yes (1)

*Q* Is IC50 strictly under 200 nM for the entry O=C(CNC(=O)Nc1ccc2cnccc2c1)NC1CCCCC1 ?
*A* no (0)

*Q* Is IC50 strictly under 200 nM for the entry O=C(NCC(=O)N1C2CCC1CC2)Nc1ccc2cnccc2c1 ?
*A* yes (1)

*Q* Is IC50 strictly under 200 nM for the entry O=C(NCC(=O)N1CCCCC1)Nc1ccc2cnccc2c1 ?
*A* yes (1)

*Q* Is IC50 strictly under 200 nM for the entry O=C(NCC(=O)N1CCCC1)Nc1cc2ccncc2cc1F ?
*A* yes (1)

*Q* Is IC50 strictly under 200 nM for the entry O=C(NCCC1CC1)Nc1ccc2cnccc2c1 ?
*A* no (0)

*Q* Is IC50 strictly under 200 nM for the entry CON(C)C(=O)CNC(=O)Nc1ccc2cnccc2c1 ?
*A* no (0)

*Q* Is IC50 strictly under 200 nM for the entry O=C(NCCc1ccccc1)Nc1ccc2cnccc2c1 ?
*A* no (0)
